Listing of recorded pre-steady-state target cleavage rate by entry.
test system: MIWI (PIWIL1) piRISC loaded with piRNA #2 (30 nt); assay: pre-steady-state target cleavage rate (min^-1); higher = faster piRNA-guided slicing of the target; settings: guide: piRNA #2 5'p-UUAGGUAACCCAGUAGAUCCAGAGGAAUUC; auxiliary factor: 500 nM mouse GTSF1;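 note: 1 nM active piRISC with 0.1 nM target library at 33 °C single turnover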
Whole data set: some 5,500 sequences, median “pre-steady-state target cleavage rate” near 0.1, cut for the highest 2% near 0.64. Shown is part of a subset that was picked to be rich in the highest values.
Give only the figure.

CAAUUCCUCUGGAUCUACAGGGUUAGCUAA 0.157
CAAUUCCUCUGGAUCUACUGGGUUACCUGA 0.328
CUAUUCCUCUGGAUCAACUGGGUUACCUAA 0.44
GAAUUCCUCUGGAUCUACUGGGUUACCUGAA 0.735
CUUAAGGUCUGGAUCUACUGCGUUACCAAA 0.109
CUAUUCCUCUGGAAGUACUGGGUUACCUAA 0.631

// query Supply reported pre-steady-state target cleavage rate belonging to this sequence: CUUAUCCUCUCGAUCUACUGCGUUACCUAA
// result 0.636

// query Supply reported pre-steady-state target cleavage rate belonging to this sequence: CUUAAGGUCUGGAACUAGUGGGUUACCUAA
// result 0.0577

// query Supply reported pre-steady-state target cleavage rate belonging to this sequence: CUUAAGGAGAGGUUCUACUGGGUUUCCUAA
// result 0.00421

// query Supply reported pre-steady-state target cleavage rate belonging to this sequence: CUUAACCUCUCGAUCUACUGCGUUACCUAA
// result 0.614

// query Supply reported pre-steady-state target cleavage rate belonging to this sequence: CUUAUCCUCUGGAUCUACAGGGUUUCCUAA
// result 0.119

====

tested on: MIWI (PIWIL1) piRISC loaded with piRNA #2 (30 nt); assay: pre-steady-state target cleavage rate (min^-1); MIWI and MILI are mouse PIWI proteins and EfPiwi is from a freshwater sponge; tags in brackets are library labels; higher = faster piRNA-guided slicing of the target; settings: guide: piRNA #2 5'p-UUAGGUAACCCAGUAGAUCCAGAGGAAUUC; auxiliary factor: 500 nM mouse GTSF1;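 note: 1 nM active piRISC with 0.1 nM target library at 33 °C single turnover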
Whole data set: some 5,500 sequences, median “pre-steady-state target cleavage rate” near 0.1, cut for the highest 2% near 0.64. Many of the other results were omitted from the sample, so the highest values are more common in it than they were.
property: pre-steady-state target cleavage rate
Give only the figure.

CUUAUCCUCUGCAUCUACUGCGUUACCUAA 0.377
CUUAUCCUCUGGAUCUACUGGGUUACCGUAA 0.344
CAAUUCCUCUGCAUCUACUGCGUUACCUAA 0.666
CUAUUCCUCUGGAUCUACUGGAGUUACCUAA 0.00422
GAAUUCCUCUAGGAUCUACUGGGUUACCUAA 0.348
CAAUACCUCUCGAUCUACUGGGUUACCUAA 0.625
CUUAUCCUCUGGAUCUACUGGGUUACGUUA 0.469
CUUAAGGACAGCAUCUACUGGGUUACCUAA 0.00648
CUUUUCCUCUGGAUCUACUGGUGUUACCUAA 0.00402
CUAUUCCUCUGAUCUACUGGGUUACCUAA 0.395

// query Supply reported pre-steady-state target cleavage rate belonging to this sequence: GAAAUCCUCUGGAUCUACUGGGUUACGUAA
// result 0.532

// query Supply reported pre-steady-state target cleavage rate belonging to this sequence: CAAUUCCUCUGGAUCUACUGGAGUUACCUAA
// result 0.00382

// query Supply reported pre-steady-state target cleavage rate belonging to this sequence: CAAUUCCUCUUGGAUCUACUGGGUUACCUAA
// result 0.358

// query Supply reported pre-steady-state target cleavage rate belonging to this sequence: CAAUUCCUCUAGGAUCUACUGGGUUACCUAA
// result 0.434

Entry source: the supplement of paper PMC10338343
